Source listed as PubChem BioAssay AID256.

system: CD2F1 mice, L1210 leukemia ip, survival T/C; test: NCI In Vivo Anticancer Drug Screen. Data for tumor model L1210 Leukemia (intraperitoneal) in CD2F1 (CDF1) mice; details: endpoint: mean survival time; dose: 5.0 mg/kg/injection; schedule: Q04DX003 (ip); vehicle: saline; higher = longer survival
Toxic doses and inconclusive results are not listed.
observed property: T/C

# molecule, T/C
measured = [
    ("CCN=c1cc2oc3cc(NCC)c(C)cc3c(-c3ccccc3C(=O)OCC)c-2cc1C", "109 % of control"),
    ("c1ccc([I+]c2ccccc2)cc1", "98 % of control"),
    ("CCCCCCCCCCCCOCC[N+](CCO)(CCO)Cc1ccccc1", "102 % of control"),
]

COc1ccc2c(ccc[n+]2C)c1 yielded T/C of 103 % of control

CN(C)C1CCCCC1[N+](C)(C)C (stereo not given) yielded T/C of 104 % of control
